# TARGET OR SYSTEM: human STING (hSTING) (Homo sapiens)
# Construct: host or cells: HEK-Blue ISG cells (HEK293-derived SEAP reporter line)
# PROCEDURE SUMMARY: Inhibition test of intracellular human STING (hSTING) pathway using SEAP reporter cells (HEK-Blue ISG), stimulation with Compound 3
# Format: cell-based
# Parameters: scale not given here
# REPORTED CONDITIONS: Compound 3 10 nM stimulation, 21 hours
Where a name gives a salt, the structure may show the parent alone.
QUANTITY KIND: hSTING inhibitory activity

[
  {
    "MOLECULE": "COCCn1c(Nc2c[nH]c3ccc(Cl)cc23)nc2cc(C(F)(F)F)ccc21",
    "TARGET OR SYSTEM": "human STING (hSTING) (Homo sapiens)",
    "RECORDED RESULT": "* * *"
  },
  {
    "MOLECULE": "Brc1cnc2[nH]cc(Nc3nc4cc(Oc5ccccc5)ccc4[nH]3)c2c1",
    "TARGET OR SYSTEM": "human STING (hSTING) (Homo sapiens)",
    "RECORDED RESULT": "* *"
  },
  {
    "MOLECULE": "Cn1c(Nc2c[nH]c3ncc(Cl)cc23)nc2ccc(Oc3ccccc3)cc21",
    "TARGET OR SYSTEM": "human STING (hSTING) (Homo sapiens)",
    "RECORDED RESULT": "* *"
  },
  {
    "MOLECULE": "CC(C)Cc1ccc2[nH]c(Nc3c[nH]c4ccc(Cl)nc34)nc2c1 [Embodiment 131, formate]",
    "TARGET OR SYSTEM": "human STING (hSTING) (Homo sapiens)",
    "RECORDED RESULT": "* *"
  },
  {
    "MOLECULE": "Clc1cc(Cl)c2nc(Nc3c[nH]c4ccc(Cl)nc34)[nH]c2c1",
    "TARGET OR SYSTEM": "human STING (hSTING) (Homo sapiens)",
    "RECORDED RESULT": "* *"
  },
  {
    "MOLECULE": "Fc1ccc2[nH]c(Nc3c[nH]c4ccc(Cl)nc34)nc2c1F",
    "TARGET OR SYSTEM": "human STING (hSTING) (Homo sapiens)",
    "RECORDED RESULT": "* *"
  },
  {
    "MOLECULE": "C[Si](C)(C)C#Cc1ccc2[nH]c(Nc3c[nH]c4ccc(Br)nc34)nc2c1",
    "TARGET OR SYSTEM": "human STING (hSTING) (Homo sapiens)",
    "RECORDED RESULT": "* * *"
  },
  {
    "MOLECULE": "C=C(C)c1ccc2[nH]c(Nc3c[nH]c4ccc(Cl)nc34)nc2c1",
    "TARGET OR SYSTEM": "human STING (hSTING) (Homo sapiens)",
    "RECORDED RESULT": "* * *"
  },
  {
    "MOLECULE": "Clc1cc2nc(Nc3c[nH]c4ccc(Br)nc34)[nH]c2cc1Cl",
    "TARGET OR SYSTEM": "human STING (hSTING) (Homo sapiens)",
    "RECORDED RESULT": "* * *"
  },
  {
    "MOLECULE": "[2H]C([2H])([2H])n1c(Nc2c[nH]c3ccc(Cl)cc23)nc2cc(C(F)(F)F)ccc21",
    "TARGET OR SYSTEM": "human STING (hSTING) (Homo sapiens)",
    "RECORDED RESULT": "* * *"
  },
  {
    "MOLECULE": "Fc1ccc2c(c1)nc(Nc1c[nH]c3ccc(Cl)cc13)n2C1CC1",
    "TARGET OR SYSTEM": "human STING (hSTING) (Homo sapiens)",
    "RECORDED RESULT": "* *"
  },
  {
    "MOLECULE": "Cn1c(Nc2c[nH]c3ccc(Br)cc23)nc2ccc(Oc3ccccc3)cc21",
    "TARGET OR SYSTEM": "human STING (hSTING) (Homo sapiens)",
    "RECORDED RESULT": "* *"
  },
  {
    "MOLECULE": "C=Cc1ccc2[nH]cc(Nc3nc4ccc(Oc5ccc(F)cc5)cc4n3C)c2n1",
    "TARGET OR SYSTEM": "human STING (hSTING) (Homo sapiens)",
    "RECORDED RESULT": "* *"
  },
  {
    "MOLECULE": "Cc1cc(C(F)(F)F)cc2nc(Nc3c[nH]c4ccc(Cl)cc34)n(C)c12",
    "TARGET OR SYSTEM": "human STING (hSTING) (Homo sapiens)",
    "RECORDED RESULT": "* * *"
  },
  {
    "MOLECULE": "FC(F)(F)c1ccc2c(c1)nc(Nc1c[nH]c3ccc(Cl)cc13)n2C1COC1",
    "TARGET OR SYSTEM": "human STING (hSTING) (Homo sapiens)",
    "RECORDED RESULT": "* *"
  },
  {
    "MOLECULE": "CCc1ccc2[nH]cc(Nc3nc4cc(Oc5ccccc5)ccc4[nH]3)c2n1",
    "TARGET OR SYSTEM": "human STING (hSTING) (Homo sapiens)",
    "RECORDED RESULT": "* *"
  },
  {
    "MOLECULE": "CCc1ccc2[nH]cc(Nc3nc4ccc(Oc5ccc(F)cc5)cc4n3C)c2n1 [Embodiment 192, formate]",
    "TARGET OR SYSTEM": "human STING (hSTING) (Homo sapiens)",
    "RECORDED RESULT": "* *"
  }
]

====

# TARGET OR SYSTEM: human STING (hSTING) (Homo sapiens, UniProt Q86WV6)
# Construct: host or cells: HEK-Blue ISG cells (HEK293-derived SEAP reporter line)
# Sequence (Q86WV6 whole entry H232R): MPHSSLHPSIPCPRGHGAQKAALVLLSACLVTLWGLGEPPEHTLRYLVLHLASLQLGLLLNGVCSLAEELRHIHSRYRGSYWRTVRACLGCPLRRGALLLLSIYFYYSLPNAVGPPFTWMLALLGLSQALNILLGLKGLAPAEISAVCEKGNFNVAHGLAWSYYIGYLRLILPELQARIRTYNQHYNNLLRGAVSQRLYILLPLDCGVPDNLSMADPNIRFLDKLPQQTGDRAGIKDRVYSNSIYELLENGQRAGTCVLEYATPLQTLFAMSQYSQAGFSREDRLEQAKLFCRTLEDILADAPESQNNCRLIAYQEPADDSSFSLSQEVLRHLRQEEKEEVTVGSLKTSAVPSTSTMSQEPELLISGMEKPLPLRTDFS
# PROCEDURE SUMMARY: Inhibition test of intracellular human STING (hSTING) pathway using SEAP reporter cells (HEK-Blue ISG), stimulation with Compound 3
# Type: cell-based
# Parameters: scale not given here
# REPORTED CONDITIONS: Compound 3 10 nM stimulation, 21 hours
Where a name gives a salt, the structure may show the parent alone.
QUANTITY KIND: hSTING inhibitory activity

[
  {
    "MOLECULE": "Cc1ccc2[nH]cc(Nc3nc4cc(C(F)(F)F)cc(F)c4n3C)c2c1",
    "RECORDED RESULT": "* * *"
  },
  {
    "MOLECULE": "c1ccc(Oc2ccc3[nH]c(Nc4c[nH]c5cc(-c6ccccc6)cnc45)nc3c2)cc1",
    "RECORDED RESULT": "* *"
  },
  {
    "MOLECULE": "Cc1ccc2[nH]c(Nc3c[nH]c4ccc(Cl)nc34)nc2c1C",
    "RECORDED RESULT": "* *"
  },
  {
    "MOLECULE": "Cc1cc2nc(Nc3c[nH]c4ccc(Br)nc34)[nH]c2cc1C",
    "RECORDED RESULT": "* *"
  },
  {
    "MOLECULE": "Clc1ccc2[nH]cc(Nc3nc4ccc(Oc5ccccc5)cc4n3C3CC3)c2n1",
    "RECORDED RESULT": "* * *"
  },
  {
    "MOLECULE": "CCO/C=C/c1ccc2[nH]c(Nc3c[nH]c4ccc(Cl)nc34)nc2c1",
    "RECORDED RESULT": "* * *"
  },
  {
    "MOLECULE": "N#Cc1ccc2[nH]c(Nc3c[nH]c4ccc(Br)cc34)nc2c1",
    "RECORDED RESULT": "* *"
  },
  {
    "MOLECULE": "CNn1c(Nc2c[nH]c3ccc(Cl)cc23)nc2cc(C(F)(F)F)ccc21.Cl",
    "RECORDED RESULT": "* * *"
  },
  {
    "MOLECULE": "Clc1ccc2[nH]cc(Nc3nc4cc(N5CCCCC5)ccc4[nH]3)c2n1",
    "RECORDED RESULT": "* *"
  },
  {
    "MOLECULE": "Cn1c(Nc2c[nH]c3ccc(Cl)nc23)nc2ccc(Oc3ccc(F)cc3)cc21",
    "RECORDED RESULT": "* *"
  },
  {
    "MOLECULE": "Cn1c(Nc2c[nH]c3ccc(C#N)cc23)nc2cc(C(F)(F)F)cc(F)c21",
    "RECORDED RESULT": "* * *"
  },
  {
    "MOLECULE": "CC(C)c1ccc2[nH]c(Nc3c[nH]c4ccc(Cl)nc34)nc2c1",
    "RECORDED RESULT": "* *"
  },
  {
    "MOLECULE": "Fc1cc2nc(Nc3c[nH]c4ccc(Cl)nc34)[nH]c2cc1C(F)(F)F",
    "RECORDED RESULT": "* * *"
  },
  {
    "MOLECULE": "Clc1ccc2[nH]cc(Nc3nc4cc(I)ccc4[nH]3)c2n1",
    "RECORDED RESULT": "* *"
  },
  {
    "MOLECULE": "Cn1c(Nc2c[nH]c3ccc(Br)nc23)nc2ccc(Oc3ccccc3)cc21",
    "RECORDED RESULT": "* * *"
  },
  {
    "MOLECULE": "CCCn1c(Nc2c[nH]c3ccc(Cl)cc23)nc2cc(OC(F)(F)F)ccc21",
    "RECORDED RESULT": "* * *"
  },
  {
    "MOLECULE": "Fc1cc(F)c2nc(Nc3c[nH]c4ccc(Cl)nc34)[nH]c2c1 [Embodiment 86, formate]",
    "RECORDED RESULT": "* *"
  },
  {
    "MOLECULE": "Fc1ccc(Oc2ccc3nc(Nc4c[nH]c5ccc(Cl)cc45)n(C4CC4)c3c2)cc1",
    "RECORDED RESULT": "* * *"
  },
  {
    "MOLECULE": "COCC#Cc1ccc2[nH]c(Nc3c[nH]c4ccc(Cl)nc34)nc2c1",
    "RECORDED RESULT": "* *"
  },
  {
    "MOLECULE": "CCn1c(Nc2c[nH]c3ccc(Cl)cc23)nc2cc(C(F)(F)F)ccc21",
    "RECORDED RESULT": "* * *"
  },
  {
    "MOLECULE": "C[C@@H](O)Cn1c(Nc2c[nH]c3ccc(Cl)cc23)nc2cc(C(F)(F)F)ccc21",
    "RECORDED RESULT": "* *"
  },
  {
    "MOLECULE": "FC(F)(F)c1ccc2c(c1)nc(Nc1c[nH]c3ccc(I)cc13)n2C1CC1",
    "RECORDED RESULT": "* *"
  },
  {
    "MOLECULE": "CN(C)c1ccc(Oc2ccc3[nH]c(Nc4c[nH]c5ccc(Br)nc45)nc3c2)cc1",
    "RECORDED RESULT": "* *"
  },
  {
    "MOLECULE": "N#Cc1ccc2[nH]cc(Nc3nc4cc(Oc5ccccc5)ccc4[nH]3)c2n1",
    "RECORDED RESULT": "* *"
  },
  {
    "MOLECULE": "Fc1ccc(Oc2ccc3nc(Nc4c[nH]c5ccc(Cl)nc45)n(C4CC4)c3c2)cc1",
    "RECORDED RESULT": "* *"
  },
  {
    "MOLECULE": "C#CCn1c(Nc2c[nH]c3ccc(Cl)cc23)nc2cc(C(F)(F)F)cc(F)c21",
    "RECORDED RESULT": "* * *"
  },
  {
    "MOLECULE": "Clc1ccc2[nH]cc(Nc3nc4c(Cl)c(Cl)ccc4[nH]3)c2n1",
    "RECORDED RESULT": "* * *"
  },
  {
    "MOLECULE": "Brc1ccc2[nH]cc(Nc3nc4cc(I)ccc4[nH]3)c2n1",
    "RECORDED RESULT": "* * *"
  },
  {
    "MOLECULE": "Cn1c(Nc2c[nH]c3cc(F)c(F)cc23)nc2cc(C(F)(F)F)cc(F)c21",
    "RECORDED RESULT": "* * *"
  },
  {
    "MOLECULE": "Brc1ccc2[nH]c(Nc3c[nH]c4ccc(Br)cc34)nc2c1",
    "RECORDED RESULT": "* * *"
  },
  {
    "MOLECULE": "Clc1ccc2[nH]cc(Nc3nc4cc(Oc5ccccc5)ccc4[nH]3)c2n1",
    "RECORDED RESULT": "* * *"
  },
  {
    "MOLECULE": "N#CCCn1c(Nc2c[nH]c3ccc(Cl)cc23)nc2cc(C(F)(F)F)ccc21",
    "RECORDED RESULT": "* *"
  },
  {
    "MOLECULE": "Cn1cc(-c2ccnc3c(Nc4nc5cc(Oc6ccccc6)ccc5[nH]4)c[nH]c23)cn1 [Embodiment 71, formate]",
    "RECORDED RESULT": "* *"
  },
  {
    "MOLECULE": "Clc1ccc2[nH]cc(Nc3nc4cc(C5=CCOCC5)ccc4[nH]3)c2n1",
    "RECORDED RESULT": "* *"
  }
]
